target: full-length beta-Catenin (Uniprot ID P35222) (Homo sapiens); construct: 10 nM full-length beta-Catenin (Uniprot ID P35222); experiment: Fluorescence polarization IC50 (beta-catenin / 5FAM-TCF4 10-53 competition); format: binding; details: read-out: FP EC50
Sequence (P35222 whole entry): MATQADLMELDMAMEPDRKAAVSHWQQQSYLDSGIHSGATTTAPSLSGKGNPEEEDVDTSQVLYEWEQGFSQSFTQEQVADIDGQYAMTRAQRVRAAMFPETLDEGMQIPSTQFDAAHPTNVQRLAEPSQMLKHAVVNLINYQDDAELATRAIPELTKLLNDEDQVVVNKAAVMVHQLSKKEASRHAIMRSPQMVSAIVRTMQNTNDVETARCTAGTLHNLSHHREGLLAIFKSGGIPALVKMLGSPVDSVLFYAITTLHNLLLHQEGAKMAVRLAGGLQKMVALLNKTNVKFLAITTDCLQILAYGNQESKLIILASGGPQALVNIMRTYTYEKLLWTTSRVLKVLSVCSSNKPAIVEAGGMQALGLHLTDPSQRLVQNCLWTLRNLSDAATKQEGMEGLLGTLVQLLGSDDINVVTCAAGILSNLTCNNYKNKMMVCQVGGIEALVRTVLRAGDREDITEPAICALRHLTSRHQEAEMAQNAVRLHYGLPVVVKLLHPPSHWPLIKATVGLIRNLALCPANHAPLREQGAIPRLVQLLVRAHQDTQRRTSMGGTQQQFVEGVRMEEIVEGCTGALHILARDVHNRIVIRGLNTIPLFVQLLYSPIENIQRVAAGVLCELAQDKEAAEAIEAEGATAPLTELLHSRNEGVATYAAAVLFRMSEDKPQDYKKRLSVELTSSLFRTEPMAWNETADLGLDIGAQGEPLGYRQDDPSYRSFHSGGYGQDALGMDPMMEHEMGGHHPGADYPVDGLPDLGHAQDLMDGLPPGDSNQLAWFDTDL
Listed next: entries and their corresponding log10 of IC50.
In plain terms, each number is the log10 of measured IC50 in nM.

compound="CC(=O)N1CCC[C@]12CC=CCCCC1(CCCC=CCCCOC(=O)N3CC[C@@](C(=O)N[C@@H](Cc4ccsc4)C(=O)N[C@@H](Cc4csc5ccccc45)C(=O)N[C@@H](CCC(N)=O)C(N)=O)(C3)NC(=O)[C@H](CC(N)=O)NC(=O)[C@H](Cc3ccccc3)NC(=O)[C@H](C)NC(=O)[C@H](C)NC(=O)[C@H](CC(=O)O)NC(=O)[C@H](CC(=O)O)NC1=O)NC(=O)[C@H](CC(C)C)NC(=O)[C@H](CC(=O)O)NC2=O (stereo partly shown) [I-689]" study_target="full-length beta-Catenin (Uniprot ID P35222) (Homo sapiens)" quantitative_readout=1.04
compound="CC(=O)N1CCC[C@]12CC=CCCCC1(CCCC=CCCCCCC[C@@](C)(C(=O)N[C@@H](Cc3ccccc3)C(=O)N[C@@H](Cc3csc4ccccc34)C(=O)N[C@@H](C(N)=O)[C@H](C)O)NC(=O)[C@H](CC(N)=O)NC(=O)[C@H](Cc3ccccc3)NC(=O)[C@H](C)NC(=O)[C@H](C)NC(=O)[C@H](CCC(=O)O)NC(=O)[C@H](CC(=O)O)NC1=O)NC(=O)[C@H](CC(C)C)NC(=O)[C@H](CC(=O)O)NC2=O (stereo partly shown) [I-754]" study_target="full-length beta-Catenin (Uniprot ID P35222) (Homo sapiens)" quantitative_readout=2.06
compound="CCCC[C@@H]1NC(=O)[C@H](C)NC(=O)[C@H](CCC(=O)O)NC(=O)[C@H](CC(=O)O)NC(=O)C2(CCCC=CCCCCCC[C@@](C)(C(=O)N[C@@H](Cc3ccccc3)C(=O)N[C@@H](Cc3csc4ccccc34)C(=O)N[C@@H](CCC(N)=O)C(N)=O)NC(=O)[C@H](CCC(N)=O)NC(=O)[C@H](Cc3ccccc3)NC1=O)CCCC=CC[C@]1(CCCN1C(C)=O)C(=O)N[C@@H](CC(=O)O)C(=O)N[C@@H]([C@@H](C)CC)C(=O)N2 (stereo partly shown) [I-666]" study_target="full-length beta-Catenin (Uniprot ID P35222) (Homo sapiens)" quantitative_readout=2.80
compound="CC(=O)N1CCC[C@]12CC=CCCCC1(CCCC=CCCCCCC[C@@](C)(C(=O)N[C@@H](Cc3ccccc3)C(=O)N[C@@H](Cc3csc4ccccc34)C(=O)N[C@@H](CO)C(N)=O)NC(=O)[C@H](CC(N)=O)NC(=O)[C@H](Cc3ccccc3)NC(=O)[C@H](C)NC(=O)[C@H](C)NC(=O)[C@H](CCC(=O)O)NC(=O)[C@H](CC(=O)O)NC1=O)NC(=O)[C@H](CC(C)C)NC(=O)[C@H](CC(=O)O)NC2=O (stereo partly shown) [I-751]" study_target="full-length beta-Catenin (Uniprot ID P35222) (Homo sapiens)" quantitative_readout=1.46
compound="CC(=O)N1CCC[C@]12CC=CCCCC1(CCCC=CCCCCCC[C@@](C)(C(=O)N[C@@H](Cc3ccccc3)C(=O)N[C@@H](Cc3csc4ccccc34)C(=O)N[C@@H](CCC(N)=O)C(N)=O)NC(=O)[C@H](CC(N)=O)NC(=O)[C@H](Cc3ccccc3)NC(=O)[C@H](C)NC(=O)[C@H](C)NC(=O)[C@H](CC(=O)O)NC(=O)[C@H](CC(=O)O)NC1=O)NC(=O)[C@H](CCC(C)C)NC(=O)[C@H](CC(=O)O)NC2=O (stereo partly shown) [I-547]" study_target="full-length beta-Catenin (Uniprot ID P35222) (Homo sapiens)" quantitative_readout=1.63
compound="CC(=O)N1CCC[C@]12CC=CCCCC1(CCCC=CCCCCCC[C@@](C)(C(=O)N[C@@H](Cc3ccccc3)C(=O)N[C@@H](Cc3csc4ccccc34)C(=O)N[C@@H](CCC(N)=O)C(N)=O)NC(=O)[C@H](CCC(N)=O)NC(=O)[C@H](Cc3ccccc3)NC(=O)[C@H](C)NC(=O)[C@H](C)NC(=O)[C@H](CCC(=O)O)NC(=O)[C@H](CC(=O)O)NC1=O)NC(=O)[C@H](CC(F)(F)F)NC(=O)[C@H](CC(=O)O)NC2=O (stereo partly shown) [I-501]" study_target="full-length beta-Catenin (Uniprot ID P35222) (Homo sapiens)" quantitative_readout=1.97
compound="CC[C@H](C)[C@@H]1NC(=O)[C@H](CC(=O)O)NC(=O)[C@]2(CC=CCCCC3(CCCC=CCCCCCC[C@@](C)(C(=O)N[C@@H](Cc4ccccc4OC)C(=O)N[C@@H](Cc4csc5ccccc45)C(=O)N[C@@H](Cc4c[nH]cn4)C(N)=O)NC(=O)[C@H](CC(N)=O)NC(=O)[C@H](Cc4ccccc4)NC(=O)[C@H](C)NC(=O)[C@H](C)NC(=O)[C@H](CC(=O)O)NC(=O)[C@H](CC(=O)O)NC3=O)NC1=O)CCCN2C(C)=O (stereo partly shown) [I-553]" study_target="full-length beta-Catenin (Uniprot ID P35222) (Homo sapiens)" quantitative_readout=1.79
compound="CC(=O)N1CCC[C@]12CC=CCCCC1(CCCC=CCCCCCC[C@@](C)(C(=O)N[C@@H](Cc3ccccc3)C(=O)N[C@@H](Cc3csc4ccccc34)C(=O)N[C@@H](CC(N)=O)C(N)=O)NC(=O)[C@H](CC(N)=O)NC(=O)[C@H](Cc3ccccc3)NC(=O)[C@H](C)NC(=O)[C@H](C)NC(=O)[C@H](CCC(=O)O)NC(=O)[C@H](CC(=O)O)NC1=O)NC(=O)[C@H](CC(C)C)NC(=O)[C@H](CC(=O)O)NC2=O (stereo partly shown) [I-753]" study_target="full-length beta-Catenin (Uniprot ID P35222) (Homo sapiens)" quantitative_readout=1.15
compound="CC[C@@H]1NC(=O)[C@H](CC(=O)O)NC(=O)[C@]2(CC=CCCCC3(CCCC=CCCCCCC[C@@](C)(C(=O)N[C@@H](Cc4ccccc4)C(=O)N[C@@H](Cc4csc5ccccc45)C(=O)N[C@@H](CCC(N)=O)C(N)=O)NC(=O)[C@H](CCC(N)=O)NC(=O)[C@H](Cc4ccccc4)NC(=O)[C@H](C)NC(=O)[C@H](C)NC(=O)[C@H](CCC(=O)O)NC(=O)[C@H](CC(=O)O)NC3=O)NC1=O)CCCN2C(C)=O (stereo partly shown) [I-569]" study_target="full-length beta-Catenin (Uniprot ID P35222) (Homo sapiens)" quantitative_readout=1.62

Consider the additional compound presented here.
// Input: CC[C@H](C)[C@@H]1NC(=O)[C@H](CC(=O)O)NC(=O)[C@]2(CC=CCCCC3(CCCC=CCCCCCC[C@@](C)(C(=O)N[C@@H](Cc4ccccc4)C(=O)N[C@@H](Cc4csc5ccccc45)C(=O)N[C@H](C(N)=O)C(C)C)NC(=O)[C@H](CCC(N)=O)NC(=O)[C@H](Cc4ccccc4)NC(=O)[C@H](C)NC(=O)[C@H](C)NC(=O)[C@H](CCC(=O)O)NC(=O)[C@H](CC(=O)O)NC3=O)NC1=O)CCCN2C(C)=O (stereo partly shown) [I-645] . Output its log10 of IC50 only.
2.60
